# credit: the Immune Epitope Database (IEDB)

molecular target: HLA-A*02:03; test: IEDB peptide-MHC binding, purified MHC/competitive/radioactivity; bounds were set here for any values at or beyond the usual limits of such assays; settings: source organism: Vaccinia virus WR
Reported Property: IC50
# do not omit the unit; it follows the number

PLISILMIFI	769 nM
AVIPFDDIV	241 nM
GLRQQLEDI	4.7 nM
HILHAYCGI	66 nM
RTRLYDYFT	3050 nM

Batch: IC50 for all items listed.
1. MICCDSRIVV
2. SLVSKHWEL
3. MLHNPTSET
4. FTEEQQQSFM
5. VILKDPRIA
6. IVILFIMFM

1. 392 nM
2. 36 nM
3. 184 nM
4. 1750 nM
5. 603 nM
6. 1680 nM

Batch: IC50 for all items listed.
1. GLLDSIKMI
2. LALKNSQAEL
3. IMRNFLRSI
4. YQNEVTPEYI
5. ETLFGSYIT
6. VTDKTAYIGT

1: 14 nM; 2: 333 nM; 3: 0.4 nM; 4: 0.21 nM; 5: 2440 nM; 6: 4000 nM

Batch: IC50 for all items listed.
1. NTNQGNILM
2. ALALEQYGI

1150 nM
40 nM

###

biological target: HLA-A*02:01; assay: IEDB peptide-MHC binding, purified MHC/competitive/radioactivity; bounds were set here for any values at or beyond the usual limits of such assays; settings: source organism: Vaccinia virus WR
Reported Property: log10(IC50) (log10 of the value in nM)
Could you please treat all values as log10 of IC50 in nM?

# annotated cases, reported log10(IC50) shown
ALEQYGIENT	3.16
TAYIGTSNWT	3.62
LIVILFIMFM	2.14
FTDCRTIDA	3.58
ILLFVIVIYI	0.89

Batch: log10(IC50) for all items listed.
1. FMYIESIKV
2. IVVPVIDRL
3. ILQYDLWNV
4. KIEDLINQLV
5. YIIRVTTEL

0.11
2.38
-0.77
2.46
1.56

###

molecular target: HLA-A*02:03; assay: IEDB peptide-MHC binding, purified MHC/competitive/radioactivity; bounds were set here for any values at or beyond the usual limits of such assays; conditions: source organism: Vaccinia virus WR
Response field label takes true when IC50 is strictly below 900 nM and false in all other cases.

Please review the following examples before continuing.
CTIVDSMII	false
YLLFNHFSV	true
YLGHSAGFT	true
VIDRLPSET	true
DVNSVQFSIL	false

Is IC50 of NLLEQLIENI strictly below 900 nM?
false

Is IC50 of NIPELKHGLL strictly below 900 nM?
false

Is IC50 of NIVTFINDYA strictly below 900 nM?
true

###

Hi there, I'd appreciate the recorded pIC50 for every entry that follows.
target: HLA-A*02:01; experiment: IEDB peptide-MHC binding, purified MHC/competitive/radioactivity; bounds were set here for any values at or beyond the usual limits of such assays; settings: source organism: Vaccinia virus WR
Give bare numbers, as −log10 of the molar value.

AALGGSVNI	5.84

Batch: pIC50 for all items listed.
1. KVTGSYNLV
2. IITNAGTCTV
3. YLLDRGADI
4. AILHNIYRL
5. VLQQNNSFI
6. ALTNAQFFV

1: 6.12; 2: 6.34; 3: 8.07; 4: 7.32; 5: 6.63; 6: 8.89

Batch: pIC50 for all items listed.
1. LVITINYFL
2. SQEVRKYFCV
3. TIDFKLKYFL
4. NIVIFVKRL
5. FAVQTIVFI
6. SVSESNIDL
7. FIDSYLQKL
8. DTMSIYIAVA

1. 7.60
2. 5.92
3. 5.52
4. 5.89
5. 7.02
6. 6.24
7. 7.62
8. 7.08

Batch: pIC50 for all items listed.
1. RAKRKPAMST
2. FTNSQIFNII
3. FIDSNEYEV

6.11
5.80
9.01

Batch: pIC50 for all items listed.
1. MLPESDLDKV
2. ELWARISSSL
3. IVNCLSLSNL
4. SMDTLLFFL
5. LLLWPLYVL
6. CIDGKWNPV

1. 7.96
2. 5.88
3. 5.71
4. 9.00
5. 9.68
6. 8.08

Batch: pIC50 for all items listed.
1. KIFIDNIYIV
2. NLTQLFKYV
3. FLDNECHTI
4. ALFGIKLPAL
5. CMAFTIPSI

6.28
5.93
9.11
8.60
9.05

Batch: pIC50 for all items listed.
1. TIFDIVSKCI
2. SIYIAVANCV
3. RLHKECLLRL
4. YLLCCNYKL
5. CVDHPFIYV
6. WLYGYNFII
7. ALTIMGVIFL
8. LLFILFYFA

1. 6.22
2. 5.84
3. 6.35
4. 9.44
5. 6.26
6. 9.72
7. 6.74
8. 7.07

Batch: pIC50 for all items listed.
1. IIDKDTNSV
2. YTINCLLYI
3. KILAIIFLVL
4. HLENDKIEDL
5. SVIFYFISI
6. FVNFVKDMI
7. LITMLSIIL
8. ILSNYVKTLL

[7.21, 8.29, 6.42, 5.74, 7.10, 5.75, 6.94, 8.12]

Batch: pIC50 for all items listed.
1. YLLSLFSTLV
2. MVDVSMMSM
3. YLVPNVIGGV
4. IVNTTYDFLA
5. MMNITRLEVI
6. SMFLMTATL
7. YTYAFTKKV
8. PLISILMIFI

1. 9.49
2. 6.70
3. 9.21
4. 5.62
5. 6.84
6. 8.64
7. 7.80
8. 6.08

###

target: HLA-A*02:01; assay: IEDB peptide-MHC binding, purified MHC/competitive/radioactivity; bounds were set here for any values at or beyond the usual limits of such assays; conditions: source organism: Vaccinia virus WR
Reported Property: pIC50
Answers are plain numbers, as −log10 of the molar value.

# annotated cases, reported pIC50 shown
TLSRHIFMA	8.21
QIFEVYWYL	7.96

Batch: pIC50 for all items listed.
1. RTFLIDLAFL
2. ATYHIIIVAL
3. DLLLPSTDV
4. QLLEAVYGNI
5. ELKETLLHV
6. IIDKDTNSVT

8.18
5.94
5.83
6.70
5.36
5.55

Batch: pIC50 for all items listed.
1. NLYDDNDIRT
2. RLPSETFPNV
3. LLMMTLPSI
4. ILMIFISSFL
5. LLFFLALSI
6. VLYDEFKCFI

7.40
9.96
9.96
7.66
7.59
8.23

###

molecular target: HLA-A*02:02; assay: IEDB peptide-MHC binding, purified MHC/competitive/radioactivity; bounds were set here for any values at or beyond the usual limits of such assays; conditions: source organism: Vaccinia virus WR
Response field label takes True when IC50 is strictly below 500 nM and False in all other cases.

Please review the following examples before continuing.
WLKDSAIMVA	True
IASILSLET	False
PLSINVSGV	False
RVSENTGMGM	False
RIEDMFLTSV	False

Is IC50 of RIVVALSSLV strictly below 500 nM?
True

###

target: HLA-A*02:01; test: IEDB peptide-MHC binding, cellular MHC/competitive/fluorescence; bounds were set here for any values at or beyond the usual limits of such assays; conditions: source organism: Vaccinia virus WR
Hi there, I'd appreciate the recorded pIC50 for every entry that follows.
Give bare numbers, as −log10 of the molar value.

# annotated cases, reported pIC50 shown
GILIYDDNI	4.95
IVWEKKSLVT	4.68
VAMLLTHGA	5.05
LIANIHNHMI	5.22
TITTFIPISA	5.01
TAVEHIPTM	4.80

Batch: pIC50 for all items listed.
1. RTNRNELFQL
2. STHRKVASST
3. WIKNLETYT
4. ELEPSLATFI
5. QQHPIVVLDA

1: 4.51; 2: 4.29; 3: 4.30; 4: 4.95; 5: 4.84

Batch: pIC50 for all items listed.
1. TACNNTIII
2. QQKCDMPSL

1. 4.95
2. 4.60

Batch: pIC50 for all items listed.
1. AIFTDASTVA
2. RTRCKYVGCT
3. AIKQYGDIDL

4.73
4.31
4.34

Batch: pIC50 for all items listed.
1. DISVNASKTI
2. SIMSMMNIT
3. RVKQWVMDT
4. TTSEVVDML
5. FISYNRHNDT

1. 4.83
2. 5.15
3. 4.69
4. 5.22
5. 4.44

###

biological target: HLA-A*02:06; test: IEDB peptide-MHC binding, purified MHC/competitive/radioactivity; bounds were set here for any values at or beyond the usual limits of such assays; settings: source organism: Vaccinia virus WR
Reported Property: pIC50
Give bare numbers, as −log10 of the molar value.

# annotated cases, reported pIC50 shown
AILHNIYRL	7.36
MLNRVQILM	5.59
NVIEDITFL	7.59

Batch: pIC50 for all items listed.
1. NLTQLFKYV
2. VLEKKVCAI
3. TLPELNLSL
4. NAILHNIYRL
5. TVPTNDHIPV

[6.18, 5.47, 6.10, 6.24, 6.29]
